Biological target: PAR2 (HT-29 cells) (Homo sapiens, UniProt P55085)
Construct: host or cells: HT-29
Sequence (P55085 26-397): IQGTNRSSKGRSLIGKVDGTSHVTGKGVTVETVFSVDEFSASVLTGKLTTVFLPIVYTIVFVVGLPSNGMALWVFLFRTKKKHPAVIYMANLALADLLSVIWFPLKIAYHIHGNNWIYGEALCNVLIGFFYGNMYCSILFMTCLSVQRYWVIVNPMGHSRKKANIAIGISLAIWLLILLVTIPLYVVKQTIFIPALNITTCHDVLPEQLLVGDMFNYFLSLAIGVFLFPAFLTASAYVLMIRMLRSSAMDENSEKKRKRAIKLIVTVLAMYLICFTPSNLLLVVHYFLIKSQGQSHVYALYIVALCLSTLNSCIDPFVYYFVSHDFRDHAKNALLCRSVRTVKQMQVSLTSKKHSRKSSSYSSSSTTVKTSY
Test: Ca FLIPR TETRA assay, ANTAGONIST mode, activator 3.1 U/mL trypsin
Type: cell-based
Settings: HT-29 cells, activator 3.1 U/mL trypsin; maximal antagonist concentration per Method (A: 0.1, 1 or 2 μM; B: 50 μM)
Quick reference: IC50 of the listed items.
Give your result in nM as a bare value.

# count of solved cases: 3
// IC50 lookup, compound = Cc1ccc(N2CCN(C(=O)c3cc4nc(-c5ccc(Cl)cc5)cc(C(C)(C)C)c4o3)C(C)(C)C2)nn1 [Example I-263] , result: 3.9

Data point: CC1(c2cc(-c3ccc(F)cc3)nc3cc(C(=O)N4CCN(C(=O)C5CCC5)CC4(C)C)oc23)CC1 [Example I-48] ; IC50 = 5.9

Value of IC50 reported for the compound CC1(C)CCC(c2cc(C(C)(C)C)c3oc(C(=O)N4CCN(c5ccc(C(=O)O)cn5)C(=O)C4(C)C)cc3n2)CC1 [Example I-281] is 7.4

***
IC50 for CC(C)(C)c1cc(C2CCC(F)(F)CC2)nc2cc(C(=O)N3CCN(C(=O)CCS(C)(=O)=O)CC3(C)C)oc12 [Example I-232] is 200

get_value(item= CC1(c2cc(-c3ccc(F)cc3)nc3cc(C(=O)N4CCN(C(=O)C5CCCCC5)CC4(C)C)oc23)CC1 [Example I-42] , readout=IC50) returns 1.2
